system: Blumeria graminis; test: Fungicidal activity against Blumeria graminis infected on foliar spray based compound pre-treated first-leaf stage 7 day old barley plants assessed as barley powdery mildew disease control level at 250 ppm measured 7 days post fungal exposure relative to untreated control; format: functional
Class definitions on Activity: low class: < 3%; middle class: ≥ 3% and < 80%; high class: ≥ 80%

Example results:
CON=Cc1onc2c1CCOC2c1ccc(Cl)cc1 (mixture of isomers); high class
Clc1ccccc1C1OCCc2c1noc2COC1CCCCO1 (stereo unspecified); middle class

query: Could you tell me which band C=CCON=Cc1onc2c1CCOC2c1ccc(Cl)cc1 (mixture of isomers) belongs to?
result: high class

query: Place this compound in its band: Clc1ccc(C2OCCc3c2noc3CBr)cc1 (stereo unspecified)
result: middle class

query: Category lookup for the compound ON=Cc1onc2c1CCOC2c1ccc(Cl)cc1 (mixture of isomers)
result: low class

query: Which band does OCc1onc2c1CCOC2c1ccccc1Cl (stereo unspecified) fall in?
result: low class

query: Classify this compound: O=Cc1onc2c1CCOC2c1ccc(Cl)cc1 (stereo unspecified)
result: low class

query: Assign a bin to Clc1ccccc1C1OCCc2c1noc2CBr (stereo unspecified)
result: middle class

query: Lab log: Clc1ccc(C2OCCc3c2noc3COC2CCCCO2)cc1 (stereo unspecified) — assign Activity category
result: low class

query: Tag the class for O=Cc1onc2c1CCOC2c1ccccc1Cl (stereo unspecified)
result: high class

query: Lab note: sort CCON=Cc1onc2c1CCOC2c1ccccc1Cl (mixture of isomers) into the matching Activity band.
result: high class

query: Categorize the following entry: ON=Cc1onc2c1CCOC2c1ccccc1Cl (stereo unspecified)
result: low class

query: Kindly identify the class of CON=Cc1onc2c1CCOC2c1ccccc1Cl (stereo unspecified) .
result: middle class

This collection of values is drawn from ChEMBL document CHEMBL3046510.
